# System: MS2 coat protein
# assay comment: apparent Kd, MS2 coat protein; higher = weaker binding; RNA-MaP array; tryptophan 2.4 mM where present
# condition label: designed as: ON switch for tryptophan; no ligand
Threshold rule: apparent Kd greater than or equal to 30 nM is t; below that, f.

Answered examples (5):
UCGUUUUAGUCGGCCGCCACUGUAUGCAUGUUUAACAUGAGGAUCACCCAUGUCCCGUACUAUAACAGGACCGGGACGUAAUAGA    t
UAUCUACAUGAAUAGGUUAUUCGAUUAUUUCGAGGACCGGUACGGCCGCCACUCGUUAACAUAUACAUGAGGAUCACCCAUGUUA    f
CUACAUUUGUAGAAACCGGUCACCGUUACUCGAGGACCGGUACGGCCGCCACUCGUGUCACGUGAUACAUGAGGAUCACCCAUGU    t
CUAUAUUUAUCGGCCGCCACUUACUCAUGAGGUAACAACAUGAGGAUCACCCAUGUUUGAGGAUCAAGGACCGGGAUAAAUAUAG    f
GCAUCCUAGUCGGCCGCCACUGCAUGUAGGCAGUGCUGCUACAAACAUGAGGAUCACCCAUGUAGCAGGACCGGGACUAGGAUGC    f

Q) Given the entry UGUGUGUGACCAGGAAAUGGUCACACACAGCGAGGACCGGUACGGCCGCCACUCGGCCGUACAUGAGGAUCACCCAUGUCGGGUA , answer whether its apparent Kd meets or surpasses 30 nM.
A) t

Q) Item UCGUUAUGGUCGGCCGCCACUCGCGGAGAGCAUAGCUCAAACAUGAGGAUCACCCAUGUAUCAUGGAGGACCGGGACCAUAACGU with apparent Kd of 30 nM or above?
A) t

Cited source: the EternaBench riboswitch data
